target entity: LCK (Homo sapiens, UniProt P06239)
Sequence (P06239 whole entry): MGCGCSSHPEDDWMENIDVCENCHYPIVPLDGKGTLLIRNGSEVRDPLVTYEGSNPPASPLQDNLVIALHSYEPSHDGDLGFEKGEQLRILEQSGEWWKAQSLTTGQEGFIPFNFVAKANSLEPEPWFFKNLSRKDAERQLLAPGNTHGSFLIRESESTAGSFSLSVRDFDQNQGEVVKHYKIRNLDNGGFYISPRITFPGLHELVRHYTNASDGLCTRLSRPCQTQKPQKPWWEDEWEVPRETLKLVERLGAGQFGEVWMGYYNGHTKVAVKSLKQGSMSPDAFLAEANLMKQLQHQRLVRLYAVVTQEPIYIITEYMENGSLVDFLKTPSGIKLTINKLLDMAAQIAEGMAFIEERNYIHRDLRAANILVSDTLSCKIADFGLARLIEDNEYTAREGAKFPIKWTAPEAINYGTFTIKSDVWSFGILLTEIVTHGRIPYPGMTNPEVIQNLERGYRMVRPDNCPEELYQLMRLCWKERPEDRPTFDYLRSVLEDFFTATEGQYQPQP
assay protocol: Inhibition of a panel of kinases, in vitro HotSpot kinase assay: LCK
Format: biochemical
condition notes: E compounds, Table 17; read-out: IC50 LCK
pIC50: −log10 of the molar value.
The following molecules are shown together with reported pIC50 values.

Some molecules with recorded pIC50:
> print(dat)
                                   molecule  reported.result
1  C=CC(=O)N1CCC[C@@H](Nc2nnc(C(N)=O)c(Nc3ccc(C4(C)CCN(C5CC5)CC4)cc3)n2)[C@H]1C [Example E-127]           > 8.00
2  C[C@@H]1[C@H](NC(=O)c2noc(C(C)(C)C)n2)CCCN1c1cnc(C(N)=O)c(Nc2cnn(C)c2)n1 [Example E-149]     5.00 to 6.00

Q) API: value(readout=pIC50, system=LCK (Homo sapiens, UniProt P06239)) for record C=CC(=O)N1CC[C@@H](N(C)c2nnc(C(N)=O)c(Nc3ccc(C(C)C)cc3)n2)C1 [Example E-26]
A) 5.00 to 6.00

Entry source: patent US20210070748A1
